test system: 8XTBD luciferase reporter (YAP) in HEK293T cells; test: YAP Reporter Assay; assay type: cell-based; conditions: Homo sapiens, HEK-293T; HEK293T cells stably transfected with 8XTBD luciferase reporter and pRLTK; 24-hr incubation; top concentration 3 μM; read-out: Firefly Luciferase IC50
pIC50: −log10 of the molar value.
property: pIC50

Here's what some known entries look like.
molecule	result
CC1(C)OCC(O)(c2nnc(-c3ccccc3Nc3ccc(C(F)(F)F)cc3)o2)CO1	5.30 to 6.00
CNCCc1nnc(-c2ccccc2Nc2ccc(C(F)(F)F)cc2)o1	5.30 to 6.00
OCC1(c2nnc(-c3ccccc3Nc3ccc(C(F)(F)F)cc3)o2)CC1	> 7.00
CC(C)N(C#N)Cc1nnc(-c2ccccc2Nc2ccc(C(F)(F)F)cc2)o1	6.00 to 7.00
CS(=O)(=O)N(CCO)c1nnc(-c2ccccc2Nc2ccc(C(F)(F)F)cc2)o1	6.00 to 7.00

// input: 3 molecules below; output: pIC50 for each
1. CC(C)NCc1nnc(-c2ccccc2Nc2ccc(C(F)(F)F)cc2)o1
2. CC1(c2nnc(-c3ccccc3Nc3ccc(C(F)(F)F)cc3)o2)COC1
3. CCN(C#N)Cc1nnc(-c2ccccc2Nc2ccc(C(F)(F)F)cc2)o1

Reply text:
["5.30 to 6.00", "6.00 to 7.00", "> 7.00"]

// each molecule listed below needs its pIC50
1. O=C(O)Cc1nnc(-c2ccccc2Nc2ccc(C(F)(F)F)cc2)o1
2. OC1(c2nnc(-c3ccccc3Nc3ccc(C(F)(F)F)cc3)o2)CC1
3. CC(O)(CN)c1nnc(-c2ccccc2Nc2ccc(C(F)(F)F)cc2)o1 (stereo not shown)
4. CN(C#N)Cc1nnc(-c2ccccc2Nc2ccc(C(F)(F)F)cc2)o1

Reply text:
1: 6.00 to 7.00; 2: > 7.00; 3: 6.00 to 7.00; 4: > 7.00

These data points were gathered from patent US11661403B2.
